# target or test system: Recombinant human integrin αvβ1 (Homo sapiens (Human), UniProt P05556+P06756)
# Sequence (P06756 31-992): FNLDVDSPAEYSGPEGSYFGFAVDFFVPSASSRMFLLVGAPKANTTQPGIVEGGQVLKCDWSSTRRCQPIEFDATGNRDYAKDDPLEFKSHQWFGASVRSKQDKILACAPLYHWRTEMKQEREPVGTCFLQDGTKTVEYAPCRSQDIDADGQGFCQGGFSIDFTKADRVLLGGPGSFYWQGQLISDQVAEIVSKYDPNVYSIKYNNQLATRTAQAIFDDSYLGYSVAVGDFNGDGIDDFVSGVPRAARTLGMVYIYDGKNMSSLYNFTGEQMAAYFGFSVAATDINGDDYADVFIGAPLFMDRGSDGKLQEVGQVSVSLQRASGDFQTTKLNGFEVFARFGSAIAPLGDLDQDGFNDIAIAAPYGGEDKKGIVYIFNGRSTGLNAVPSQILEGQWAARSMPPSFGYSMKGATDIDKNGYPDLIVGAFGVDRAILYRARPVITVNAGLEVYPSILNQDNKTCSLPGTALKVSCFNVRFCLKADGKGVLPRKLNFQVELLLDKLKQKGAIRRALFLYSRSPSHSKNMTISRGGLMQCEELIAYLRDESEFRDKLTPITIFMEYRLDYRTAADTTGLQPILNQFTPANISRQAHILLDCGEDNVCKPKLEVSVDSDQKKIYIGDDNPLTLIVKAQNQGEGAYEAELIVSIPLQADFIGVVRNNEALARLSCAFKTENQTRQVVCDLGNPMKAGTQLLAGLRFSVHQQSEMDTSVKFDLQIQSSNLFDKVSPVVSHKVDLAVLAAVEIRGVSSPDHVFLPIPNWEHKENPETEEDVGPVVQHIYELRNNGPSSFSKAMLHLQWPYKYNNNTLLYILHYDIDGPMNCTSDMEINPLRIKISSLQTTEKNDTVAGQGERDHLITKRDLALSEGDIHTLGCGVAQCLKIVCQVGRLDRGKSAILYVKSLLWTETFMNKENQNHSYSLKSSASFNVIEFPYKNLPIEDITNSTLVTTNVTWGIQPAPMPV
# Sequence (P05556 21-728): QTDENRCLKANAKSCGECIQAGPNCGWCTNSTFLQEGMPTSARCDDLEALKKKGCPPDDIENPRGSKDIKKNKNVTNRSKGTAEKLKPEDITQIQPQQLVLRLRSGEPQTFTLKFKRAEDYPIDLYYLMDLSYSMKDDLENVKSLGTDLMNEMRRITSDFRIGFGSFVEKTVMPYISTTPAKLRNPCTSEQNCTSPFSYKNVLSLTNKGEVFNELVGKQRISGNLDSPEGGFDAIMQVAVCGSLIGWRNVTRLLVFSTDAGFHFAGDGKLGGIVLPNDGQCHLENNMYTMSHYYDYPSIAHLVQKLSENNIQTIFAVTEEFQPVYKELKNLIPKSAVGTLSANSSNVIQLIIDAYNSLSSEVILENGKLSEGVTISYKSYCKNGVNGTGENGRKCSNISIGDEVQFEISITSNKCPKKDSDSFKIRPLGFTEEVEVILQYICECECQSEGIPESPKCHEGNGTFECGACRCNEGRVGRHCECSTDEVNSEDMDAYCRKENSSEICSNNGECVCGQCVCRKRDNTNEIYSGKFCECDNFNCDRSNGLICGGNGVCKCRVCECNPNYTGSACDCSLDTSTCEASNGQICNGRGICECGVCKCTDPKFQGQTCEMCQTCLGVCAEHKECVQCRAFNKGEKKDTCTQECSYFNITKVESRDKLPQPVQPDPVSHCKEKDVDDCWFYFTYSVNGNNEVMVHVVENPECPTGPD
# assay protocol: Solid Phase Receptor Assay (SPRA) for αvβ1 function
# condition summary: fibronectin-coated plate
pIC50: −log10 of the molar value.
result type: pIC50

Here is how some compounds turned out for pIC50.
compound	test value
O=C(O)C[C@H](NC(=O)CNC(=O)c1cc(O)cc(NC2=NCC(O)CN2)c1)c1cc(Cl)cc(Br)c1O (stereo partly drawn) [Example C1, reference compound]	7.77
O=C(O)C[C@H](NC(=O)CNC(=O)c1cc(O)cc(NC2=NCC(O)CN2)c1)c1cc(F)cc(Br)c1 (stereo partly drawn)	9.00
Cc1cc(Cl)cc([C@H](CC(=O)O)NC(=O)CNC(=O)c2cc(O)cc(NC3=NCC(O)CN3)c2)c1 (stereo partly drawn)	8.40
O=C(O)C[C@H](NC(=O)CNC(=O)c1cc(O)cc(NC2=NCC(O)CN2)c1)c1cc(Br)cc(C(F)F)c1 (stereo partly drawn)	8.70

P = O=C(O)C[C@H](NC(=O)CNC(=O)c1cc(O)cc(NC2=NCC(O)CN2)c1)c1cc(Cl)cc(Cl)c1 (stereo partly drawn)
Q = Cc1ccc(O)c(C(CC(=O)O)NC(=O)CNC(=O)c2cc(O)cc(NC3=NCC(O)CN3)c2)c1 (stereo not drawn) [Example C6, reference compound]
# input When the recorded pIC50 values are compared, which is smaller: that of P or that of Q ? Kindly give the label for the entry you pick.
# output Q
(Q: 8.10, P: 8.40)

I = O=C(O)C[C@H](NC(=O)CNC(=O)c1cc(O)cc(NC2=NCC(O)CN2)c1)c1cc(Cl)cc(OC(F)(F)F)c1 (stereo partly drawn)
II = N=C(N)Nc1cccc(C(=O)NCC(=O)NC(CC(=O)O)c2cc(F)cc(C(F)(F)F)c2)c1 (stereo not drawn) [Example C9, reference compound]
# input When the recorded pIC50 values are compared, which is smaller: that of I or that of II ? Kindly give the label for the entry you pick.
# output II
(II: 8.30, I: 8.52)
